- Tested on: DA-receptor
- ASSAY NOTES: Contralateral circling in rats with unilateral 6-hydroxy-DA (6-OHDA) lesions; for 6-OHDA Contr. Circle. rats (sc) Duration: test concentration or dose not given here
- Format: in vivo, rat (Wistar)
- EXPERIMENTAL SETUP: 6-OHDA-lesioned rats, duration given instead of ED50
In this section we review reported 6-OHDA Contr. Circle. rats (sc) Duration values for a set of molecules.
MEASURED METRIC: 6-OHDA Contr. Circle. rats (sc) Duration (h)

MOLECULE: CCCN(CCC)CC1COc2ccc(OC(=O)c3ccccc3N)cc21 (stereo not shown)
BOUND TYPE: >
ENDPOINT RESULT: 6

MOLECULE: CCCN(CCC)CC1CCc2ccc(OC(=O)c3ccccc3C)cc21 (stereo not shown)
BOUND TYPE: =
ENDPOINT RESULT: 18

MOLECULE: CCCN(CCC)CC1CCc2ccc(OC(=O)c3c(F)cccc3F)cc21 (stereo not shown)
BOUND TYPE: =
ENDPOINT RESULT: 4

MOLECULE: CCCN(CCC)CC1COc2ccc(OC(=O)NC(C)C)cc21 (stereo not shown)
BOUND TYPE: =
ENDPOINT RESULT: 4

MOLECULE: CCCN(CCC)CC1CCc2ccc(OC(=O)c3ccccc3Cl)cc21 (stereo not shown)
BOUND TYPE: =
ENDPOINT RESULT: 4

MOLECULE: CCCN(CCC)CC1CCc2ccc(OC(=O)c3ccccc3F)cc21 (stereo not shown)
BOUND TYPE: =
ENDPOINT RESULT: 4

MOLECULE: CCN(CC)CC1CCc2ccc(OC(=O)Nc3ccc(C(C)C)cc3)cc21 (stereo not shown)
BOUND TYPE: >
ENDPOINT RESULT: 6

MOLECULE: CCCN(CCC)CC1CCc2ccc(OC(=O)c3ccccc3OC)cc21 (stereo not shown)
BOUND TYPE: =
ENDPOINT RESULT: 4

MOLECULE: CCCN(CCC)CC1CCc2ccc(OC(=O)c3ccccc3OC(C)=O)cc21 (stereo not shown)
BOUND TYPE: =
ENDPOINT RESULT: 4

MOLECULE: CCCN(CCC)CC1COc2ccc(OC(=O)c3ccccc3C)cc21 (stereo not shown)
BOUND TYPE: =
ENDPOINT RESULT: 15

====

# 6-OHDA Contr. Circle. rats (sc) ED50 per record follows
- Test system: DA-receptor
- ASSAY NOTES: Contralateral circling in rats with unilateral 6-hydroxy-DA (6-OHDA) lesions
- Format: in vivo, rat (Wistar)
- EXPERIMENTAL SETUP: 6-OHDA-lesioned rats, doses calculated as the free amine

MOLECULE: CCCN(C)CC1COc2ccc(O)cc21 (stereo not shown) [Lu 24-103]
SCALE UNIT: µmol/kg
BOUND TYPE: =
6-OHDA Contr. Circle. rats (sc) ED50: 1.2

MOLECULE: CCCN(CCC)CC1CCc2ccc(O)cc21 (single isomer, unassigned; (-)) [Lu 22-050]
SCALE UNIT: µmol/kg
BOUND TYPE: =
6-OHDA Contr. Circle. rats (sc) ED50: 0.45

MOLECULE: CCCN(C)CC1COc2ccc(O)cc21 (single isomer, unassigned; (+)) [Lu 25-020]
SCALE UNIT: µmol/kg
BOUND TYPE: =
6-OHDA Contr. Circle. rats (sc) ED50: 0.95

MOLECULE: CCCN(CCc1ccccc1)CC1COc2ccc(O)cc21 (stereo not shown) [Lu 24-084]
SCALE UNIT: µmol/kg
BOUND TYPE: =
6-OHDA Contr. Circle. rats (sc) ED50: 0.94

MOLECULE: CCCN(CCC)CC1COc2ccc(OC(=O)C(C)(C)C)cc21 (stereo not shown) [Lu 24-042]
SCALE UNIT: µmol/kg
BOUND TYPE: =
6-OHDA Contr. Circle. rats (sc) ED50: 0.40

MOLECULE: CN(C)CC1CCc2ccc(O)cc21 (stereo not shown) [Lu 21-112]
SCALE UNIT: µmol/kg
BOUND TYPE: =
6-OHDA Contr. Circle. rats (sc) ED50: 0.95

MOLECULE: CN1CCc2cccc3c2[C@H]1Cc1ccc(O)c(O)c1-3 [Apomorphine, apomorphine, reference compound]
SCALE UNIT: µmol/kg
BOUND TYPE: =
6-OHDA Contr. Circle. rats (sc) ED50: 0.06

MOLECULE: CCCN(CCC)CC1COc2ccc(O)cc21 (single isomer, unassigned; (+)) [Lu 24-122]
SCALE UNIT: µmol/kg
BOUND TYPE: =
6-OHDA Contr. Circle. rats (sc) ED50: 0.16

MOLECULE: CCCCN(CCCC)CC1CCc2ccc(O)cc21 (stereo not shown) [Lu 22-028, N,N-Dibutyl-6-hydroxy-1-indanmethylamine]
SCALE UNIT: µmol/kg
BOUND TYPE: >
6-OHDA Contr. Circle. rats (sc) ED50: 14

MOLECULE: CCN(CC)CC1CCc2ccc(O)cc21 (single isomer, unassigned; (-)) [Lu 22-105]
SCALE UNIT: µmol/kg
BOUND TYPE: =
6-OHDA Contr. Circle. rats (sc) ED50: 1.2

MOLECULE: CCCN(CCc1cccs1)CC1COc2ccc(O)cc21 (stereo not shown) [Lu 24-155]
SCALE UNIT: µmol/kg
BOUND TYPE: =
6-OHDA Contr. Circle. rats (sc) ED50: 1.2

MOLECULE: CCCN(C)CC1CCc2ccc(O)cc21 (stereo not shown) [Lu 25-009]
SCALE UNIT: µmol/kg
BOUND TYPE: =
6-OHDA Contr. Circle. rats (sc) ED50: 0.82

MOLECULE: CCCN(CCO)CC1COc2ccc(O)cc21 (stereo not shown) [Lu 24-102]
SCALE UNIT: µmol/kg
BOUND TYPE: =
6-OHDA Contr. Circle. rats (sc) ED50: 2.1

MOLECULE: CCCN1CCC[C@@H](c2cccc(O)c2)C1 [(--)-3-PPP, reference compound]
SCALE UNIT: µmol/kg
BOUND TYPE: =
6-OHDA Contr. Circle. rats (sc) ED50: 0.77

MOLECULE: CCCN(CCC)CC1CCc2ccccc21 (stereo not shown) [Lu 21-091, N,N-Dipropyl-1-indanmethylamine]
SCALE UNIT: µmol/kg
BOUND TYPE: >
6-OHDA Contr. Circle. rats (sc) ED50: 62

MOLECULE: CCCN(CCC)CC1COc2ccc(O)cc21 (stereo not shown) [Lu 23-130]
SCALE UNIT: µmol/kg
BOUND TYPE: =
6-OHDA Contr. Circle. rats (sc) ED50: 0.35

MOLECULE: CCN(CC)CC1CCc2ccc(O)cc21 (single isomer, unassigned; (+)) [Lu 22-106]
SCALE UNIT: µmol/kg
BOUND TYPE: =
6-OHDA Contr. Circle. rats (sc) ED50: 0.36

MOLECULE: CCCNCC1CCc2ccc(O)cc21 (stereo not shown) [Lu 21-138, 6-Hydroxy-N-propyl-1-indanmethylamine]
SCALE UNIT: µmol/kg
BOUND TYPE: =
6-OHDA Contr. Circle. rats (sc) ED50: 10

MOLECULE: CCCN(CCc1ccccc1)CC1CCc2ccc(O)cc21 (stereo not shown) [Lu 21-113]
SCALE UNIT: µmol/kg
BOUND TYPE: =
6-OHDA Contr. Circle. rats (sc) ED50: 0.12

Where do these numbers come from? They come from patent US4847254A.
